Quick reference for pIC50 among some compounds
Target: p38 MAP Kinase a (Homo sapiens)
pIC50: −log10 of the molar value.

Use these answered entries as a reference point.
compound: Nc1c(C(=O)c2ccc(F)cc2)ccc(=O)n1C1CCC(N[C@@H](Cc2ccccc2)C(=O)O)CC1 (stereo partly shown) [Example 105]
pIC50: 6.00 to 7.00

compound: Nc1c(C(=O)c2ccc(F)cc2F)ccc(=O)n1-c1ccc(OCCCN[C@@H](Cc2ccccc2)C(=O)OC2CCCC2)cc1 [Example 29]
pIC50: > 7.00

compound: Nc1c(C(=O)c2ccc(F)cc2)ccc(=O)n1-c1c(F)cc(OCCCN[C@@H](Cc2ccccc2)C(=O)OC2CCCC2)cc1F [Example 14]
pIC50: > 7.00

compound: CC(C)C[C@@H](NCCCOc1cc(F)c(-n2c(N)c(C(=O)c3ccc(F)cc3F)ccc2=O)c(F)c1)C(=O)O [Example 108]
pIC50: > 7.00

compound: Cc1cc(C(=O)c2ccc(=O)n(-c3c(F)cc(OCCCN[C@@H](Cc4ccccc4)C(=O)O)cc3F)c2N)ccc1F [Example 93]
pIC50: > 7.00

Asked: Quote p38 MAP Kinase a (Homo sapiens) pIC50 for entry COc1ccc(C(=O)c2ccc(=O)n(-c3ccc(CCN[C@@H](CC(C)C)C(=O)OC4CCCC4)cc3)c2N)cc1 [Example 64] .
Given back: < 6.00

Asked: Quote p38 MAP Kinase a (Homo sapiens) pIC50 for entry Nc1c(C(=O)c2ccc(F)cc2)ccc(=O)n1-c1ccc(CN[C@H](C(=O)O)c2ccccc2)cc1 [Example 75] .
Given back: 6.00 to 7.00

* * *

Quick reference for IC50 among some molecules
Target: p38 MAP Kinase a (Homo sapiens, UniProt Q16539)
Sequence (Q16539 whole entry): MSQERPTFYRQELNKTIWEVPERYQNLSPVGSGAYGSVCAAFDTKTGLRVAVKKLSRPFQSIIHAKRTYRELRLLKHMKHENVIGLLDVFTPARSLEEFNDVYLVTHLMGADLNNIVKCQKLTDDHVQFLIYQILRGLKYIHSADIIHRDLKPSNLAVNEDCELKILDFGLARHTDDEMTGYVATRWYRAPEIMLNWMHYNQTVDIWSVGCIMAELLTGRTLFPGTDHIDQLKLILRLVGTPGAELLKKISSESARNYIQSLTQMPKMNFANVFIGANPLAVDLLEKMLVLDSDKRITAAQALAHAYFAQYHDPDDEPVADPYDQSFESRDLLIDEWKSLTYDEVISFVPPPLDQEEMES
Counter-ions that a name gives are not always drawn.

Asked: Quote p38 MAP Kinase a (Homo sapiens, UniProt Q16539) IC50 for entry Nc1c(C(=O)c2ccc(F)cc2)ccc(=O)n1-c1ccc(CCN[C@H](C(=O)OC2CCCC2)c2ccccc2)cc1 [Example 61] .
Given back: 100 to 1000 nM

Asked: Quote p38 MAP Kinase a (Homo sapiens, UniProt Q16539) IC50 for entry O=C(c1ccc(F)cc1)c1ccc(=O)[nH]c1Nc1c(F)cc(CN[C@@H](Cc2ccccc2)C(=O)OC2CCCC2)cc1F [Example 71] .
Given back: < 100 nM

Asked: Quote p38 MAP Kinase a (Homo sapiens, UniProt Q16539) IC50 for entry Nc1c(C(=O)c2ccc(F)cc2)ccc(=O)n1-c1c(F)cc(OC2CCC(N[C@@H](Cc3ccccc3)C(=O)OC3CCCC3)CC2)cc1F (some centres unmarked) [Example 31, trifluoroacetate] .
Given back: < 100 nM

Asked: Quote p38 MAP Kinase a (Homo sapiens, UniProt Q16539) IC50 for entry CC(C)C[C@H](NCCCOc1cc(F)c(-n2c(N)c(C(=O)c3ccc(F)cc3)ccc2=O)c(F)c1)C(=O)OC1CCCC1 [Example 15] .
Given back: < 100 nM

Asked: Quote p38 MAP Kinase a (Homo sapiens, UniProt Q16539) IC50 for entry Nc1c(C(=O)c2ccc(F)cc2F)ccc(=O)n1-c1c(F)cc(OCCCN[C@@H](Cc2ccccc2)C(=O)O)cc1F [Example 100] .
Given back: < 100 nM

Asked: Quote p38 MAP Kinase a (Homo sapiens, UniProt Q16539) IC50 for entry Nc1c(C(=O)c2ccc(F)cc2)ccc(=O)n1-c1ccc(OCCCN[C@H](C(=O)O)c2ccccc2)cc1 [Example 94] .
Given back: < 100 nM

Asked: Quote p38 MAP Kinase a (Homo sapiens, UniProt Q16539) IC50 for entry CC(C)C[C@H](NCCc1ccc(-n2c(N)c(C(=O)c3ccc(F)cc3)ccc2=O)cc1)C(=O)OC(C)(C)C [Example 58] .
Given back: 100 to 1000 nM

Asked: Quote p38 MAP Kinase a (Homo sapiens, UniProt Q16539) IC50 for entry CC(C)C[C@H](NCCCCCOc1cc(F)c(-n2c(N)c(C(=O)c3ccc(F)cc3)ccc2=O)c(F)c1)C(=O)O [Example 109] .
Given back: < 100 nM
